The entries below come with measured Disease control values attached.
Tested on: Phytophthora infestans
Experiment: Fungicidal activity under greenhouse conditions against Tomato late blight (Phtyopthora infestans) at 200 ppm
Assay type: functional

{"columns": ["MOLECULE_SMILES", "UNIT_OF_MEASUREMENT", "Disease control"],
 "data": [
  ["O=[N+]([O-])c1ccccc1-c1ccnc(-c2ccccn2)c1", "%", 24],
  ["CCCCCc1ccnc(-c2cc(CCCCC)ccn2)c1", "%", 0],
  ["Cc1ccc(-c2ccccn2)nc1", "%", 0],
  ["CCCCc1ccnc(-c2cc(CCCC)ccn2)c1", "%", 0],
  ["Cc1ccnc(-c2ccc(-c3ccccc3)cn2)c1", "%", 0],
  ["c1ccc(-c2ccc(-c3ccccn3)nc2)cc1", "%", 23],
  ["c1ccc(OCc2ccc(-c3ccccn3)nc2)cc1", "%", 0],
  ["Cc1ccnc(-c2cc(-c3ccccc3)ccn2)c1", "%", 0],
  ["COc1ccccc1-c1ccnc(-c2ccccn2)c1", "%", 24],
  ["c1ccc(-c2ccnc(-c3ccccn3)c2)cc1", "%", 0],
  ["O=[N+]([O-])c1ccc(-c2ccc(-c3ccccn3)nc2)cc1", "%", 0],
  ["CC(C)c1ccnc(-c2cc(C(C)C)ccn2)c1", "%", 0],
  ["Cc1ccc(-c2ccc(-c3ccccn3)nc2)cc1", "%", 0],
  ["COc1ccc(-c2ccc(-c3ccccn3)nc2)cc1", "%", 0],
  ["Clc1ccc(-c2ccc(-c3ccccn3)nc2)cc1", "%", 0],
  ["Fc1ccc(-c2ccc(-c3ccccn3)nc2)cc1", "%", 24],
  ["Brc1ccc(-c2ccc(-c3ccccn3)nc2)cc1", "%", 0],
  ["COc1ccccc1-c1ccnc(-c2cc(C)ccn2)c1", "%", 0],
  ["CCCCCCCCCCCCc1ccnc(-c2cc(CCCCCCCCCCCC)ccn2)c1", "%", 0]
]}
